Provenance of the data: patent US20130046012A1

// reported ED50 per item
tested on: Male Swiss mice; experiment: Hot plate method (acute pain model); format: in vivo; conditions: Mus musculus, oral, 30 minutes before test, hot surface 55° C, dose producing 50% MPE, cutoff 60 seconds, read-out: HOT PLATE (ED50, p.o)
Where a name gives a salt, the structure may show the parent alone.
EXPERIMENTAL_READOUT: ED50 (µmol/kg)

>>> measured_value("CCOC(=O)NCC1(CC(=O)Oc2cccc(C3(O)CCCCC3CN(C)C)c2)CCCCC1 (stereo not shown) [Product of example 4]")
26.3
>>> measured_value("COc1cccc([C@@]2(O)CCCC[C@@H]2CN(C)C)c1 (relative stereo) [Tramadol hydrochloride, reference compound]")
66
>>> measured_value("CN(C)C[C@H]1CCCC[C@]1(O)c1cccc(OC(=O)CC2(CNC(=O)OC(C)(C)C)CCCCC2)c1 [Product of example 2]")
8
>>> measured_value("CN(C)CC1CCCCC1(O)c1cccc(OC(=O)CC2(CNC(=O)OC(C)(C)C)CCCCC2)c1 (stereo not shown) [Product of example 1]")
35.7
